Attribution: PubChem BioAssay (NCI)

- Test system: 786-0 renal
- procedure details: NCI tumour cell line growth inhibition, 48 h

compound | TGI
CCCCN(CC)CCCCCCCCCCN1CCCc2cc(OC)ccc21 | 3.94 µM
C=C1c2[nH]c3ccccc3c2CC(C(=O)O)N1C(O)c1ccc(S(=O)(=O)O)cc1 (stereo not drawn) | > 100 µM
Cc1cc(=O)oc2cc(OC(=O)Nc3ccccc3)ccc12 | > 100 µM
CC(C)OCc1cc(CN2CCN(c3cccc(Cl)c3)CC2)c(O)c2ncccc12 | 9.56 µM
CCc1cccc(CC)c1NC(=O)CC1SC(N)=NC1=O (stereo not drawn) | > 100 µM
Nc1nc(Br)nc2ncn(C3CC(O)C(CO)O3)c12 (stereo not drawn) | > 100 µM
N#Cc1c2ccccc2c2nnc3ccc(C(F)(F)F)cc3n12 | > 100 µM
O=C(O)C1=CN(c2ccncc2)C(c2ccco2)=CC1c1ccccc1[N+](=O)[O-] (stereo not drawn) | 4.15 µM

###

- Test system: SK-MEL-28 melanoma
- procedure details: NCI tumour cell line growth inhibition, 48 h; in the data active = GI50 below about 0.43 µM; inactive = the rest
Classes used: active, inactive

compound | assay system | discrete label
NC(=O)CCc1ccccc1Oc1nccc(-c2c(-c3ccc(F)cc3)ncn2C2CCNCC2)n1 | SK-MEL-28 melanoma | inactive
COc1cc(/C=C/C(=O)c2ccc(F)cc2)ccc1OCCCCCOc1cc2c(cc1OC)C(=O)N1CCCC1C=N2 (centres undefined) | SK-MEL-28 melanoma | active
COc1ncc(-c2ccc3nccc(C#CCN4CCN(S(C)(=O)=O)CC4)c3c2)cc1NS(=O)(=O)c1ccc(F)cc1F | SK-MEL-28 melanoma | active
O=C1/C(=C\c2ccccc2)CN(C(=O)c2ccccc2)C/C1=C\c1ccccc1 | SK-MEL-28 melanoma | inactive
NC(=N\N=C/c1ccc(Cl)cc1Cl)/C(N)=N\N=C/c1ccc(Cl)cc1Cl | SK-MEL-28 melanoma | inactive
N#Cc1c2ccccc2c2nnc3ccc(C(F)(F)F)cc3n12 | SK-MEL-28 melanoma | inactive
CC(=O)OCC1OC([Se-])C(OC(C)=O)C(OC(C)=O)C1OC(C)=O.N#CCC[PH+](CCC#N)CCC#N.[Au+] (centres undefined) | SK-MEL-28 melanoma | inactive
O=C1NC(=O)C(c2ccccc2)=C1Nc1ccccc1 | SK-MEL-28 melanoma | inactive
CCCCCCc1cc2cc(-c3csc(/C=C/c4ccccc4)n3)c(=O)oc2cc1O | SK-MEL-28 melanoma | inactive

###

- Tested on: NCI-H226 lung
- procedure details: NCI tumour cell line growth inhibition, 48 h; in the data active = GI50 below about 0.43 µM; inactive = the rest
Classes used: TRUE = active, FALSE = inactive

compound | discrete label
O=C1/C(=C\c2ccccc2)CN(C(=O)c2ccccc2)C/C1=C\c1ccccc1 | FALSE
O=C([O-])CCc1ccccc1.O=C([O-])CCc1ccccc1.O=C([O-])CCc1ccccc1.O=C([O-])CCc1ccccc1.[Mo+2].[Mo+2] | FALSE
C/C(=N\O)c1cccc(Nc2cc(-c3ccccc3)nc3c(O)cccc23)c1 | FALSE
CCN1C(=O)N(CC)C2C1NC(=S)N2/N=C/C=C/c1ccccc1OC (stereo unspecified) | TRUE
NC(=N\N=C/c1ccc(Cl)cc1Cl)/C(N)=N\N=C/c1ccc(Cl)cc1Cl | FALSE
O=C1C(=C([O-])c2ccccc2)C(=O)c2ccccc21.O=C1C(=C([O-])c2ccccc2)C(=O)c2ccccc21.[Co+2] | FALSE
N#C/C(=C\c1ccc(F)cc1)n1nc2cccc(F)c2n1 | FALSE
Brc1ccc(Nc2nc3ccccc3nc2Nc2ccc(Br)cc2)cc1 | FALSE
COC(=O)[C@@H](C)C[C@H](Cc1ccccc1)NC(=O)c1csc([C@@H](C[C@H](C(C)C)N(C)C(=O)C2(NC(=O)[C@H]3CCCCN3C)CCC2)OC(C)=O)n1 | TRUE
O=C(O)c1ccc(C(=O)O)c(C(=O)O)c1.[NH-]C1CCCCC1[NH-].[Pt+2] | FALSE
O=C1c2cccnc2C(=O)c2c1c(C(=O)OCCc1ccccn1)c1ccccn21 | TRUE

###

- System: 786-0 renal
- procedure details: NCI tumour cell line growth inhibition, 48 h
readout: TGI (µM)

compound | assay system | readout | measure unit | reading qualifier | reported result
COc1cc2cc3c4cc(OC)c(OC)cc4cc[n+]3c(C)c2cc1OC | 786-0 renal | TGI | µM | = | 37.9
Cc1cc(C)c(S(=O)(=O)N(CCCN)OCCON(CCCN)S(=O)(=O)c2c(C)cc(C)cc2C)c(C)c1 | 786-0 renal | TGI | µM | = | 13.1
O=C(O)CNCCc1ccccc1 | 786-0 renal | TGI | µM | > | 100
CCOC(=O)[C@@H](C)C[C@H](Cc1ccccc1)NC(=O)c1csc([C@@H](C[C@H](C(C)C)N(C)C(=O)[C@@H](NC(=O)[C@H]2C[C@H](O)CCN2C)C(C)C)OC(C)=O)n1 | 786-0 renal | TGI | µM | > | 16.7
O=C1CCCCC1C(O)(C(F)(F)F)C(F)(F)Cl (centres undefined) | 786-0 renal | TGI | µM | > | 10
CCCCCCc1cc2cc(-c3csc(/C=C/c4ccccc4)n3)c(=O)oc2cc1O | 786-0 renal | TGI | µM | = | 17.1
CCCCCCCC(CC(=O)NC(CO)C(=O)NC(CO)CC(C)C)OC(=O)CC(CCCCCCC)OC(=O)CC(CCCCCCC)OC1OC(C)C(O)C(OC2OC(C)C(O)C(O)C2O)C1O (centres undefined) | 786-0 renal | TGI | µM | = | 35
C/C1=C/C[C@@H](/C(C)=C/c2csc(C)n2)OC(=O)C[C@H](O)C(C)(C)C(=O)[C@H](C)[C@@H](O)[C@@H](C)CCC1 | 786-0 renal | TGI | µM | = | 0.228
Oc1ccc(Cc2ccc(O)c(C3CC(c4ccc(Cl)cc4)=NN3)c2)cc1C1CC(c2ccc(Cl)cc2)=NN1 (centres undefined) | 786-0 renal | TGI | µM | > | 40.2

###

- Tested on: 786-0 renal
- procedure details: NCI tumour cell line growth inhibition, 48 h
Let's look at some compounds and their measured TGI.

compound | reading qualifier | TGI [µM]
Cc1cc2c(cc1C)[n+](=O)c(C(=O)CC(=O)C(=O)Nc1ccccc1C(C)C)c(C)n2[O-] | > | 100
C=C1CC(C)(COc2cc(=O)oc3ccccc23)OC1=O (stereo not given) | = | 11.8
CCCNCC(O)CNc1ccc(NCC(O)CNCCC)c2c1C(=O)c1ccccc1C2=O (stereo not given) | = | 8.21
COc1ccccc1NC(=O)C(=O)Cc1cnc2ccccc2n1 | > | 100
O=C(Cc1ccccc1)N/N=C(/c1nc2ccc([N+](=O)[O-])cc2[nH]c1=O)C(O)c1ccc(C(O)/C(=N/NC(=O)Cc2ccccc2)c2nc3ccc([N+](=O)[O-])cc3[nH]c2=O)cc1 (stereo not given) | > | 100
Cc1ccc(NC(=O)c2nc(S(C)(=O)=O)oc2-c2ccc(F)cc2)cc1Nc1ccc2ncn(C)c(=O)c2c1 | = | 3.55
CN1CC=C(c2cccn2C)CC1 | > | 100
N#CC(/C(=N/NC(N)=S)C(=O)Nc1cccc(Cl)c1)c1ccccc1 (stereo not given) | > | 100
c1ccc2nn(C3CCCO3)nc2c1 (stereo not given) | > | 100
C#CCn1c(=O)c2cccnc2n(CC#C)c1=O | > | 100
CCOc1cc(/C=C/C(=O)C(C(=O)/C=C/c2ccc(OC(=O)CNc3nnc(C)s3)c(OCC)c2)C(=O)CNc2nnc(C)s2)ccc1OC(=O)CNc1nnc(C)s1 | = | 5.98
CC(CNC(=O)c1ccccc1)(CNC(=O)c1ccccc1)[N+](=O)[O-] | > | 100
O=C1c2cccnc2C(=O)c2c1c(C(=O)OCCc1ccccn1)c1ccccn21 | = | 1.26
CC1(C)SCc2nc3ccccc3n21 | > | 100
CCN1C(=O)N(CC)C2C1NC(=S)N2/N=C/C=C/c1ccccc1OC (stereo not given) | > | 100
COc1cc(/C=C/C(=O)c2c(C)nc3ccccc3c2C)ccc1OCCCCOc1cc2c(cc1OC)C(=O)N1CCC[C@H]1C=N2 | = | 1.86
O=C1NC(=O)C2C1C1C=C3c4ccccc4N(c4ccccc4)C32[C@H]2C(=O)NC(=O)[C@@H]12 (stereo not given in full) | > | 100
C=CC(OC(=O)C(C)C)c1ccc(OC(=O)C(C)C)cc1 (stereo not given) | = | 18.9
C=C(COC(C)=O)CC(/C=C(\C)CC/C=C(\C)CO)OC(C)=O (stereo not given) | > | 100
S=C(Nc1ccc2c(c1)oc1ccccc12)c1cccs1 | = | 68.9

###

Let's look at some compounds and their measured TGI.
- System: UACC-62 melanoma
- procedure details: NCI tumour cell line growth inhibition, 48 h
readout: TGI (µM)

compound | assay system | measure unit | reading qualifier | reported result
COC1=CC(=O)OC(/C=C(C)/C=C/C2=C(C)CCCC2(C)C)C1 (configuration not stated) | UACC-62 melanoma | µM | > | 100
O=c1nc(N2CCCC2)nc(N2CCCC2)s1 | UACC-62 melanoma | µM | > | 100
NC(=O)CCc1ccccc1Oc1nccc(-c2c(-c3ccc(F)cc3)ncn2C2CCNCC2)n1 | UACC-62 melanoma | µM | > | 25
c1ccc(-c2cn(-c3ccccc3)c(-c3ccccc3)n2)cc1 | UACC-62 melanoma | µM | = | 29.8
C#C[C@]1(O)[C@@H](CO)O[C@@H](n2ccc(N)nc2=O)[C@@H]1O | UACC-62 melanoma | µM | = | 0.4
Oc1c(Cl)c(Cl)c(O)c(CCNc2nccs2)c1Cl | UACC-62 melanoma | µM | = | 40.5
COC(=O)[C@]1(C)CCC[C@]2(C)[C@@H](CCC(=O)C(C)C)[C@]3(C=O)O[C@@H]3C[C@H]21 | UACC-62 melanoma | µM | > | 100
CC(=O)N=c1ccc2nc(N)nn(O)c-2c1 | UACC-62 melanoma | µM | > | 100
CCN(CC)CC(O)COc1c(Br)c(Br)c(Br)c2c1OC(C)(C)C2 (configuration not stated) | UACC-62 melanoma | µM | = | 3.47
CCC(C)CC(C)C(=O)c1c(O)ccn(O)c1=O (configuration not stated) | UACC-62 melanoma | µM | = | 6.74
C/C(=N/NC(=S)N1CC2CCC(CC2)C1)c1cnccn1 | UACC-62 melanoma | µM | = | 6.08
O=c1[nH]c2ccccc2n2cc3ccccc3c12 | UACC-62 melanoma | µM | = | 15.8
COCC12CCC(OC)C34C5CC6(O)C(OC)C=C(C5C6OC(=O)c5ccccc5)C(C(OC)C13)C4N(C)C2 (configuration not stated) | UACC-62 melanoma | µM | > | 100
c1ccc2nn(C3CCCO3)nc2c1 (configuration not stated) | UACC-62 melanoma | µM | > | 100
COc1ccc2[nH]c3c4c(cc(-c5ccccc5)c3c2c1)C(=O)N(c1ccccc1)C4=O | UACC-62 melanoma | µM | > | 90.6
Cc1ccc(NC(=O)c2nc(S(C)(=O)=O)oc2-c2ccc(F)cc2)cc1Nc1ccc2ncn(C)c(=O)c2c1 | UACC-62 melanoma | µM | = | 4.88
CSC1=C(C#N)C(=O)N(c2ccc(C)cc2)C(=O)C1C#N (configuration not stated) | UACC-62 melanoma | µM | > | 100
N#CCC1C2CC3C(C2=O)C13 (configuration not stated) | UACC-62 melanoma | µM | > | 100
c1ccc2cc(CNCCCCNCCCNCc3ccc4ccccc4c3)ccc2c1 | UACC-62 melanoma | µM | = | 3.52
COc1ccc(/C=C/C(=O)c2ccc(Nc3nc(Nc4ccc(F)cc4)nc(Nc4ccc(Cl)cc4)n3)cc2)cc1 | UACC-62 melanoma | µM | > | 100
CC1(C)SCc2nc3ccccc3n21 | UACC-62 melanoma | µM | > | 100
CC(=O)OCC1OC([Se-])C(OC(C)=O)C(OC(C)=O)C1OC(C)=O.N#CCC[PH+](CCC#N)CCC#N.[Au+] (configuration not stated) | UACC-62 melanoma | µM | = | 30.6
